Cytotox ratio Pb Ookinete reference
System: P. berghei ookinete development
Experiment: P. berghei Ookinete Development Assay (PbODA)
Assay type: cell-based, Plasmodium berghei
Conditions: Mean TOX HepG2 over Pb ODA value; GREEN = >10-fold; RED = <10-fold
Reply briefly: the number, and no unit.

Observe how each entry below is paired with its result.
Cc1cc(C(=O)OCC(=O)Nc2c(C)n(C)n(-c3ccccc3)c2=O)c(C)n1-c1ccc(F)cc1; 166949.3
O=C(O)CCSSc1cccc[n+]1[O-]; 13258.7

Here is another compound to look at.
Ask | # input compound: O=C(O)C(F)(F)F.O=c1[nH]ccc2nc(N[C@@H]3CCCNC3)nc(Nc3ccc(S(=O)(=O)N4CCOCC4)cc3)c12 ; wanted: its Cytotox ratio Pb Ookinete
Reply | 23182.4
